B1: HDV Ribozyme (parent)
chain: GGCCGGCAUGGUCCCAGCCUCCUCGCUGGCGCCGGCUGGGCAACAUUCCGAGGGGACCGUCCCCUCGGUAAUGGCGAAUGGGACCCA

Variants of: B1
protocol text: self-cleavage, relative activity (ratio to wild type); higher = more cleavage; co-transcriptional
endpoint: self-cleavage
When you answer, write just the number.

# variant label, self-cleavage
records = [
    ("G25A C48U", 0.264),
    ("A16C U37G", 0.0923),
    ("C75A A78G", 0.0898),
    ("U37A C44U", 0.0386),
    ("G5C G11A", 0.0449),
]

GET /values?readout=self-cleavage&item= G5C C26U 0.489

GET /values?readout=self-cleavage&item= C3A G80C 0.111

GET /values?readout=self-cleavage&item= G50U A83G 0.818

GET /values?readout=self-cleavage&item= U27C C64A 0.705

GET /values?readout=self-cleavage&item= A56G C86A 0.718

GET /values?readout=self-cleavage&item= C19A C48U 0.0683

GET /values?readout=self-cleavage&item= C21U C41U 0.267

GET /values?readout=self-cleavage&item= C33G C86U 0.214

GET /values?readout=self-cleavage&item= C21U A56G 0.315
